Measured IC50 on UniProtKB P29274 follows.
State just the number; it will be interpreted in nM.

Consider the molecule shown here: Nc1nc2c(cnn2CCc2ccc(C(=O)O)cc2)c2nc(-c3ccco3)nn12 What is its recorded IC50?
1.8

Now this one: COCCOc1ccc(N2CCN(CCn3ncc4c3nc(N)n3nc(-c5ccco5)nc43)CC2)cc1 [Preladenant, reference compound]
2.5

Cool, now Nc1nc2c(cnn2CCc2ccc(OCC(=O)O)cc2)c2nc(-c3ccco3)nn12
1.1

Also Nc1nc2c(cnn2CCN2CCN(c3ccc(C(=O)O)cc3)CC2)c2nc(-c3ccco3)nn12 ?
1.2

----------
assay_info: Oral bioavailability, AUC, half-life, plasma, brain and liver concentration in mice at 2 mg/kg
Type: in vivo
reported_conditions: 2 mg/kg, time point not stated
experimental_endpoint: Plasma concentration 4 and 6 hours after oral administration

Would you kindly share the measured Plasma concentration 4 and 6 hours after oral administration for Nc1nc2c(cnn2CCc2ccc(OCC(=O)O)cc2)c2nc(-c3ccco3)nn12 ?
2.57 ± 0.10 ng/mL

Please answer likewise for Nc1nc2c(cnn2CCN2CCN(c3ccc(C(=O)O)cc3)CC2)c2nc(-c3ccco3)nn12
4.50 ± 2.53 ng/mL
